# System: GDM-1 (Acute Myeloid Leukemia);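 further: after 72 h of two-drug dosing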
# METHOD_DESCRIPTION: Bliss excess, mean over the matrix (fraction); higher = more synergy
ENDPOINT_NAME: Bliss excess
Numbers only.

Please review the following examples before continuing.
COMPOUND	VAL
NC1(C(=O)N[C@@H](CCO)c2ccc(Cl)cc2)CCN(c2ncnc3[nH]ccc23)CC1 [Capivasertib] + CCN(CCO)CCCOc1ccc2c(Nc3cc(CC(=O)Nc4cccc(F)c4)[nH]n3)ncnc2c1 [AZD2811] (first compound max 10 µM, 7x7, partner max 1 µM)	-0.0464
COc1nnc2ccc(N3CCC(c4ccc(OCCN5CCN(C)C(=O)[C@H]5C)cc4)CC3)nn12 [AZD5153] + CN(CC[C@H](CSC1=CC=CC=C1)NC2=C(C=C(C=C2)S(=O)(=O)NC(=O)C3=CC=C(C=C3)N4CCC(CC4)[C@H](C5=CC=CC=C5C6=CC=C(C=C6)Cl)O)S(=O)(=O)C(F)(F)F)CCO [AZD4320] (first compound max 1 µM, 7x7, partner max 1 µM)	0.0276
CCN(CCO)CCCOc1ccc2c(Nc3cc(CC(=O)Nc4cccc(F)c4)[nH]n3)ncnc2c1 [AZD2811] + C[C@@H]1COCCN1C2=NC(=NC(=C2)C3(CC3)[S@](=N)(=O)C)C4=C5C=CNC5=NC=C4 [AZD6738] (first compound max 1 µM, 7x7, partner max 10 µM)	-0.0749
CC(=O)Nc1cccc(-n2c(=O)n(C3CC3)c(=O)c3c(Nc4ccc(I)cc4F)n(C)c(=O)c(C)c32)c1 [Trametinib] + Cc1nc(-c2cn3c(n2)-c2ccc(-c4cnn(C(C)(C)C(N)=O)c4)cc2OCC3)n(C(C)C)n1 [Taselisib] (first compound max 1 µM, 7x7, partner max 10 µM)	0.0571

Give measured Bliss excess for every item shown.
1. CCc1c2c(nc3ccc(O)cc13)-c1cc3c(c(=O)n1C2)COC(=O)[C@]3(O)CC [SN-38] + CN(C)CCCOc1ccc(-c2ccc3ncc4c(c3c2)n(C2CCOCC2)c(=O)n4C)cn1 [AZD0156] (first compound max 0.3 µM, 7x7, partner max 1 µM)
2. Cc1c2c(nn1C)CSCc1cc(n(C)n1)CSc1cc(c3ccccc3c1)OCCCc1c(C(=O)O)n(C)c3c-2c(Cl)ccc13 [AZD5991] + C1CN(CCC1(C(=O)N[C@@H](CCO)C2=CC=C(C=C2)Cl)N)C3=NC=NC4=C3C=CN4 [Capivasertib] (first compound max 1 µM, 7x7, partner max 3 µM)
3. CS(=O)(=O)CCNCc1ccc(-c2ccc3ncnc(Nc4ccc(OCc5cccc(F)c5)c(Cl)c4)c3c2)o1 [Lapatinib] + C[C@@H](Oc1cc(-c2cnn(C3CCNCC3)c2)cnc1N)c1c(Cl)ccc(F)c1Cl [Crizotinib] (first compound max 10 µM, 7x7, partner max 10 µM)
4. COc1cccc(OCCCN)c1-c1cc(Nc2cnc(C#N)cn2)n[nH]1 [Prexasertib] + CCc1c2c(nc3ccc(O)cc13)-c1cc3c(c(=O)n1C2)COC(=O)[C@]3(O)CC [SN-38] (first compound max 1 µM, 7x7, partner max 0.3 µM)
5. C=CCn1c(=O)c2cnc(Nc3ccc(N4CCN(C)CC4)cc3)nc2n1-c1cccc(C(C)(C)O)n1 [AZD1775] + C[C@@H]1COCCN1C2=NC(=NC(=C2)C3(CC3)[S@](=N)(=O)C)C4=C5C=CNC5=NC=C4 [AZD6738] (first compound max 1 µM, partner max 10 µM)
6. NC1(C(=O)N[C@@H](CCO)c2ccc(Cl)cc2)CCN(c2ncnc3[nH]ccc23)CC1 [Capivasertib] + COc1nnc2ccc(N3CCC(c4ccc(OCCN5CCN(C)C(=O)[C@H]5C)cc4)CC3)nn12 [AZD5153] (first compound max 10 µM, 7x7, partner max 1 µM)

Response:
[-0.0216, 0.0461, -0.0027, -0.0108, 0.0041, 0.0163]

Give measured Bliss excess for every item shown.
1. C[C@@H](c1ccc2nccn2c1)n1nnc2ncc(-c3cnn(C)c3)nc21 [Savolitinib] + CC1(C)CCC(CN2CCN(c3ccc(C(=O)NS(=O)(=O)c4ccc(NCC5CCOCC5)c([N+](=O)[O-])c4)c(Oc4cnc5[nH]ccc5c4)c3)CC2)=C(c2ccc(Cl)cc2)C1 [Venetoclax] (first compound max 1 µM, 7x7, partner max 1 µM)
2. CN(CCO)CC[C@H](CSc1ccccc1)Nc1ccc(S(=O)(=O)NC(=O)c2ccc(N3CCC([C@@H](O)c4ccccc4-c4ccc(Cl)cc4)CC3)cc2)cc1S(=O)(=O)C(F)(F)F [AZD4320] + Cn1cnc2c(F)c(Nc3ccc(Br)cc3Cl)c(C(=O)NOCCO)cc21 [Selumetinib] (first compound max 1 µM, 7x7, partner max 3 µM)
3. Cn1cnc2c(F)c(Nc3ccc(Br)cc3Cl)c(C(=O)NOCCO)cc21 [Selumetinib] + CCN(CCO)CCCOc1ccc2c(Nc3cc(CC(=O)Nc4cccc(F)c4)[nH]n3)ncnc2c1 [AZD2811] (first compound max 10 µM, 7x7, partner max 1 µM)

Response:
1: -0.0236; 2: 0.0223; 3: -0.0345

====

# Tested on: HLE (Hepatocellular Carcinoma)
# METHOD_DESCRIPTION: combination Emax (second highest fraction inhibited in the dose matrix, 72 h); higher = more inhibition; extreme values may be limits of the assay
ENDPOINT_NAME: combination Emax
Give bare numbers.

MOLECULE	TARGET_OF_ASSAY	VAL
CN(CCO)CC[C@H](CSc1ccccc1)Nc1ccc(S(=O)(=O)NC(=O)c2ccc(N3CCC([C@@H](O)c4ccccc4-c4ccc(Cl)cc4)CC3)cc2)cc1S(=O)(=O)C(F)(F)F [AZD4320] + Cn1cnc2c(F)c(Nc3ccc(Br)cc3Cl)c(C(=O)NOCCO)cc21 [Selumetinib] (first compound max 1 µM, 7x7, partner max 3 µM)	HLE (Hepatocellular Carcinoma)	0.504

Below: the item to evaluate.
Request: Supply measured combination Emax of N#Cc1cnc(Nc2cc(NC[C@H]3CNCCO3)c(C(F)(F)F)cn2)cn1 [SRA737] + Nc1ccn([C@@H]2O[C@H](CO)[C@@H](O)C2(F)F)c(=O)n1 [Gemcitabine] (first compound max 10 µM, 7x7, partner max 0.3 µM) in your reply.
Response: 0.773

====

# Test system: YT (Other Blood Carcinomas)
# METHOD_DESCRIPTION: combination Emax (second highest fraction inhibited in the dose matrix, 72 h); higher = more inhibition; extreme values may be limits of the assay
ENDPOINT_NAME: combination Emax
Numbers only.

Please review the following examples before continuing.
COMPOUND	combination Emax
COc1nnc2ccc(N3CCC(c4ccc(OCCN5CCN(C)C(=O)[C@H]5C)cc4)CC3)nn12 [AZD5153] + C[C@@H]1COCCN1C2=NC(=NC(=C2)C3(CC3)[S@](=N)(=O)C)C4=C5C=CNC5=NC=C4 [AZD6738] (first compound max 1 µM, 7x7, partner max 10 µM)	0.923
CN(C)CCCOc1ccc(-c2ccc3ncc4c(c3c2)n(C2CCOCC2)c(=O)n4C)cn1 [AZD0156] + CCN(CCO)CCCOc1ccc2c(Nc3cc(CC(=O)Nc4cccc(F)c4)[nH]n3)ncnc2c1 [AZD2811] (first compound max 1 µM, 7x7, partner max 1 µM)	0.591
CCN(CCO)CCCOc1ccc2c(Nc3cc(CC(=O)Nc4cccc(F)c4)[nH]n3)ncnc2c1 [AZD2811] + O=C(c1cc(Cc2n[nH]c(=O)c3ccccc23)ccc1F)N1CCN(C(=O)C2CC2)CC1 [Olaparib] (first compound max 1 µM, 7x7, partner max 10 µM)	0.309
C[C@@H](Oc1cc(-c2cnn(C3CCNCC3)c2)cnc1N)c1c(Cl)ccc(F)c1Cl [Crizotinib] + Cn1cnc2c(F)c(Nc3ccc(Br)cc3Cl)c(C(=O)NOCCO)cc21 [Selumetinib] (first compound max 10 µM, 7x7, partner max 10 µM)	0.621
COc1nnc2ccc(N3CCC(c4ccc(OCCN5CCN(C)C(=O)[C@H]5C)cc4)CC3)nn12 [AZD5153] + CC1(C)CCC(CN2CCN(c3ccc(C(=O)NS(=O)(=O)c4ccc(NCC5CCOCC5)c([N+](=O)[O-])c4)c(Oc4cnc5[nH]ccc5c4)c3)CC2)=C(c2ccc(Cl)cc2)C1 [Venetoclax] (first compound max 1 µM, 7x7, partner max 1 µM)	0.714
Cc1c2c(nn1C)CSCc1cc(n(C)n1)CSc1cc(c3ccccc3c1)OCCCc1c(C(=O)O)n(C)c3c-2c(Cl)ccc13 [AZD5991] + C[C@@H]1COCCN1C2=NC(=NC(=C2)C3(CC3)[S@](=N)(=O)C)C4=C5C=CNC5=NC=C4 [AZD6738] (first compound max 1 µM, 7x7, partner max 10 µM)	1

Below: the item to evaluate.
Request: Supply measured combination Emax of CN(CCO)CC[C@H](CSc1ccccc1)Nc1ccc(S(=O)(=O)NC(=O)c2ccc(N3CCC([C@@H](O)c4ccccc4-c4ccc(Cl)cc4)CC3)cc2)cc1S(=O)(=O)C(F)(F)F [AZD4320] + C[C@@H](Nc1cc(F)cc(F)c1)c1cc(C(=O)N(C)C)cc2c(=O)cc(N3CCOCC3)oc12 [AZD8186] (first compound max 1 µM, 7x7, partner max 3 µM) in your reply.
Response: 0.676
